Collected CC50 at 48 h values appear next to each entry.
- Method: Cytotoxicity in MDCK cells assessed as reduction in cell viability incubated for 48 hrs by MTT assay
- Assay type: cell-based, Canis lupus familiaris
- Condition label: dog

Use the examples below as a reference point.
Compound	Assay endpoint	Result
COc1ccc(-c2cn(CC3=C(Cl)c4ccc(-c5cccs5)nc4CC3)nn2)cc1	CC50 at 48 h	> 300 µg/mL
ClC1=C(Cn2cc(-c3ccsc3)nn2)CCc2nc(-c3cccs3)ccc21	CC50 at 48 h	> 300 µg/mL
O=C1c2ccccc2C(=O)N1Cc1cn(CC2=C(Cl)c3ccc(-c4cccs4)nc3CC2)nn1	CC50 at 48 h	> 300 µg/mL

-- ask Give its CC50 at 48 h value. Item: `ClC1=C(Cn2cc(-c3cc4ccccc4c4ccccc34)nn2)CCc2nc(-c3cccs3)ccc21`
-- reply > 300 µg/mL

-- ask Would you kindly repeat that for `Fc1ccc(-c2cn(CC3=C(Cl)c4ccc(-c5cccs5)nc4CC3)nn2)c(F)c1` ?
-- reply 188 µg/mL

-- ask Would you mind doing `ClC1=C(Cn2cc(-c3ccc(Cl)c(Cl)c3)nn2)CCc2nc(-c3cccs3)ccc21` as well?
-- reply > 300 µg/mL

-- ask Entry CCC(CC)O[C@@H]1C=C(C(=O)O)C[C@H](N)[C@H]1NC(C)=O [OSELTAMIVIR CARBOXYLATE] please
-- reply > 30 µg/mL

-- ask Further, for `Fc1ccc(-c2cn(CC3=C(Cl)c4ccc(-c5cccs5)nc4CC3)nn2)cc1` ?
-- reply 100 µg/mL
